biological target: UniProt P30559; experiment: Antagonist activity at human OTR receptor expressed in HEK293FT cells assessed as inhibition of LIT-001-induced response incubated for 30 mins by beta-arrestin recruitment assay; format: functional, cell-based
quantity: pIC50
Give bare numbers, as −log10 of the molar value.

What does the data say about its pIC50? Entry: COCc1nnc(N2CC(Oc3ccc(F)cc3Cl)C2)n1-c1ccc(OC)nc1
7.20

====

biological target: Vasopressin V1a receptor (Homo sapiens, UniProt P37288); experiment: Antagonist activity at human V1A receptor expressed in CHO cells assessed as inhibition of AVP-induced myo-inositol 1-phosphate accumulation by IP-One assay; type: functional, cell-based
Sequence (P37288 whole entry, looked up): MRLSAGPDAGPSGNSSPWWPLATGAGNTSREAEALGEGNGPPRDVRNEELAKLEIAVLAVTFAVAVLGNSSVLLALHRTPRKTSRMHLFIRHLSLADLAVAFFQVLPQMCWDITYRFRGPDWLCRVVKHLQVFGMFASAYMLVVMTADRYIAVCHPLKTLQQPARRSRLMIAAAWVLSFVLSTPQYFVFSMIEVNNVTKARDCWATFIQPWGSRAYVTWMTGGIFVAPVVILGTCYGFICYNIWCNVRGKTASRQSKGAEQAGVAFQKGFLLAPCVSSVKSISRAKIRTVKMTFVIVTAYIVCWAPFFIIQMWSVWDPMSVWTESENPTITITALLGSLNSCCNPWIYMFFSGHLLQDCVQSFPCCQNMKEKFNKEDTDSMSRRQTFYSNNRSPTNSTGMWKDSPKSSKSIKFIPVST
quantity: log10 Kinact (log10 of the value in nM)
Hey, these are logged values: log10 of Kinact, nM being the unit before logging.

Check out these entries, answers already filled in.
* O=C(c1ccc(I)cc1)N1CCCCc2ccccc21 | 1.18
* O=C(c1ccc(Cl)cc1)N1CCCCc2ccccc21 | 2.17
* CCCc1ccc(C(=O)N2CCCCc3ccccc32)cc1 | 2.26
* CN(C)c1ccc(C(=O)N2CCCCc3ccccc32)cc1 | 1.91
* O=C(c1ccc(-c2cccnc2)cc1)N1CCCCc2ccccc21 | 1.71
* CC(=O)Nc1ccc(C(=O)N2CCCCc3ccccc32)cc1 | 2.48

For each entry beneath this line, provide reported log10 Kinact.
1. CCCCc1ccc(C(=O)N2CCCCc3ccccc32)cc1
2. O=C(c1ccc(-c2ncccn2)cc1)N1CCCCc2ccccc21
3. Cc1ccn(-c2ccc(C(=O)N3CCCCc4ccccc43)cc2)n1
4. O=C(c1ccc(Br)cc1)N1CCCCc2ccccc21

1. 2.62
2. 2.25
3. 1.68
4. 2.34

====

molecular target: Vasopressin V1b receptor (Homo sapiens); experiment: Binding affinity to V1B receptor (unknown origin)
pKi: −log10 of the molar value.
Kindly state pKi for each of the entries shown.

• Cc1ccn(-c2ccc(C(=O)N3Cc4cccn4Cc4ccccc43)c(Cl)c2)n1 = < 6.00

Now look at this one.
What does the data say about its pKi? Entry: Cc1cc(C(=O)N2Cc3cnn(C)c3Nc3ccccc32)ccc1CNC(=O)N1CCN(Cc2cc(O)cc(O)c2)CC1
5.24 to 6.00

====

Molecular target: UniProtKB P30559
Sequence (P30559 whole entry): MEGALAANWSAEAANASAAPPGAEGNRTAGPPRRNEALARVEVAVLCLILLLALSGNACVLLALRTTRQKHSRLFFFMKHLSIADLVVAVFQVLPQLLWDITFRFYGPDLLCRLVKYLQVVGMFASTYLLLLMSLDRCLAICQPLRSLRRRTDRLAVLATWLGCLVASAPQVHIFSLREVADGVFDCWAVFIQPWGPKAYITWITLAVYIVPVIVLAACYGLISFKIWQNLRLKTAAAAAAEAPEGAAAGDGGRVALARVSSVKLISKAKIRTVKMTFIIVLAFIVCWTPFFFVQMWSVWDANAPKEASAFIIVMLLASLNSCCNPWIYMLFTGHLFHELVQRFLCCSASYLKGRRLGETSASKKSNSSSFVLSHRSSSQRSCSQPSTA
Test: Agonist activity at human OTR receptor expressed in HEK293FT cells assessed as stimulation of calcium release by Aequorin based assay
Format: functional, cell-based
quantity: pEC50
Answers are plain numbers, as −log10 of the molar value.

Observed pEC50 on UniProtKB P30559 for Cc1cc(C(=O)N2Cc3cnn(C)c3Nc3ccccc32)ccc1CNC(=O)N1CCC[C@H]1C(=S)N(C)C , please.
7.60

====

molecular target: Vasopressin V2 receptor (Homo sapiens, UniProt P30518); assay: Displacement of [3H]-AVP from human V2 receptor expressed in human HeLa cell membranes incubated for 2 hrs by scintillation counting method
Sequence (P30518 whole entry): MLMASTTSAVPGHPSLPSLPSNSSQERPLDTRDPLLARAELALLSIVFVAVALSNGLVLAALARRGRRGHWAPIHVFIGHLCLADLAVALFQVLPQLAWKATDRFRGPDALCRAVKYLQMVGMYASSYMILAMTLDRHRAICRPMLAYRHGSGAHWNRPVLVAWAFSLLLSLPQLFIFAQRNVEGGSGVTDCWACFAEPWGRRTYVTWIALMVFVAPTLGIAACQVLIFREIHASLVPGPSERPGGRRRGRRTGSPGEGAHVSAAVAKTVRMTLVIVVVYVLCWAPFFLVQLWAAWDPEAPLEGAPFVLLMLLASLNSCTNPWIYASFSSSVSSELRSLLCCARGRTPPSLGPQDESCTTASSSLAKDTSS
quantity: Ki (nM)
Numbers only, in nM.

What does the data say about its Ki? Entry: CC(C)NC(=O)C[C@H]1CCCN(C(=O)c2ccc(N3CCCC3)cc2Cl)c2ccccc21
91.9

====

target: Vasopressin V1b receptor (Homo sapiens); experiment: Displacement of [3H]-AVP from human V1B receptor expressed in human HeLa cell membranes incubated for 2 hrs by scintillation counting method
quantity: IC50

What does the data say about its IC50? Entry: CC(C)NC(=O)C[C@H]1CCCN(C(=O)c2ccc(N3CCCC3)cc2Cl)c2ccccc21
> 100 µM

====

Biological target: Vasopressin V1b receptor (Homo sapiens)
Sequence (P47901 whole entry): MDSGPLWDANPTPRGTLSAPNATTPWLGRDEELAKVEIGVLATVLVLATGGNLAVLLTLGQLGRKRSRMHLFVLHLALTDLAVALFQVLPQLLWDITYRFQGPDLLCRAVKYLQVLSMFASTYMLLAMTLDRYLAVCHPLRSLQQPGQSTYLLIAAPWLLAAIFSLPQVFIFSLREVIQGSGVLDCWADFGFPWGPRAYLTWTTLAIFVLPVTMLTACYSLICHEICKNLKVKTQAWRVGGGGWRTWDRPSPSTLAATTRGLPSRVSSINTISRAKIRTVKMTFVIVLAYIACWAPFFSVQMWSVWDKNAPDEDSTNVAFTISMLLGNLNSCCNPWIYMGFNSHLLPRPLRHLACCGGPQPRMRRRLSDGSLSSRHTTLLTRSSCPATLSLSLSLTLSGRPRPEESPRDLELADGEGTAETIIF
Experiment: Displacement of [3H]-AVP from human V1B receptor expressed in CHO cell membranes
quantity: Ki (µM)
Numbers only, in µM.

What does the data say about its Ki? Entry: Cc1occc1C(=O)Nc1ccc(C(=O)N2CCC(F)(F)/C(=C\C(=O)N3CCC(N4CCCCC4)CC3)c3ccccc32)cc1
25.5

====

experiment: Thermodynamic solubility in pH 7.4 buffer; assay type: physicochemical; conditions: read-out: Therm_solubility
Kindly state solubility thermodynamic for each of the entries shown.
Answers are plain numbers, in µM.

• Cc1cc(C(=O)N2Cc3cnn(C)c3Nc3ccccc32)ccc1CNC(=O)N1CCC[C@H]1C(=S)N(C)C = 680

Now look at this one.
What does the data say about its solubility thermodynamic? Entry: Cc1cc(C(=O)N2Cc3cnn(C)c3Nc3ccccc32)ccc1CNC(=O)N1CCN(Cc2cc(O)cc(O)c2)CC1
5000

====

Target: Oxytocin receptor (Homo sapiens)
Sequence (P30559 whole entry): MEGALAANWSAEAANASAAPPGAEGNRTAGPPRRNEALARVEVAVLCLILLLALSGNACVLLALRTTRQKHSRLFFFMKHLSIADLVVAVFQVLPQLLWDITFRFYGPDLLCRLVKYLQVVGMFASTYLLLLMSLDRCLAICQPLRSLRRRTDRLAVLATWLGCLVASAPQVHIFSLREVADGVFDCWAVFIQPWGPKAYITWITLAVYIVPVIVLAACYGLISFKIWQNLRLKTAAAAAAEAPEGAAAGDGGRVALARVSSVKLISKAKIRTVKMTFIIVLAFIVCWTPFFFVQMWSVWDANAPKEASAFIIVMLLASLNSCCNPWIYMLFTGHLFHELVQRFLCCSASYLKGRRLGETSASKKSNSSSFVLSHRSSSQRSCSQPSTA
Experiment: Binding affinity to OTR receptor (unknown origin)
quantity: pKi
One number for each entry, as −log10 of the molar value.

What does the data say about its pKi? Entry: Cc1ccn(-c2ccc(C(=O)N3Cc4cccn4Cc4ccccc43)c(Cl)c2)n1
6.90

====

biological target: UniProtKB P30518; experiment: Agonist activity at human V2 receptor expressed in HEK293FT cells assessed as stimulation of calcium release by Aequorin based assay; format: functional, cell-based
quantity: pEC50
Answers are plain numbers, as −log10 of the molar value.

• Cc1cc(C(=O)N2Cc3cnn(C)c3Nc3ccccc32)ccc1CNC(=O)N1CCC[C@H]1C(=S)N(C)C = 7.39

Now look at this one.
What does the data say about its pEC50? Entry: Cc1cc(C(=O)N2Cc3cnn(C)c3Nc3ccccc32)ccc1CNC(=O)N1CCN(Cc2cc(O)cc(O)c2)CC1
5.64

====

Target: Oxytocin receptor (Homo sapiens)
Sequence (P30559 whole entry): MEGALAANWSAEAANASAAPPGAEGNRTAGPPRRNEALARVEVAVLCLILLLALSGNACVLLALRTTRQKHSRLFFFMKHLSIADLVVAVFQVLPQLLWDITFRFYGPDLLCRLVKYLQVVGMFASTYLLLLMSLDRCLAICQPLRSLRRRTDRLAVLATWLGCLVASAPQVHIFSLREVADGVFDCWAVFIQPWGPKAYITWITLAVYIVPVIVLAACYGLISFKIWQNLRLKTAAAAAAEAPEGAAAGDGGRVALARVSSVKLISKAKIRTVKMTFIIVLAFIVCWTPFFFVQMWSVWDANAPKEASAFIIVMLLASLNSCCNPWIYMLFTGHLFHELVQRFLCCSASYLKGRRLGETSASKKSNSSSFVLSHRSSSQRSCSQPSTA
Experiment: Antagonist activity at human OTR receptor expressed in HEK293FT cells assessed as inhibition of LIT-001-induced calcium release by Aequorin based assay
Format: functional, cell-based
quantity: IC50 (nM)
Numbers only, in nM.

What does the data say about its IC50? Entry: COCc1nnc(N2CC(Oc3ccc(F)cc3Cl)C2)n1-c1ccc(OC)nc1
600
